Record: hERG/GSK-3β Ratio reported on hERG ion channel (Homo sapiens (Human), UniProt Q12809).
Sequence (Q12809 whole entry): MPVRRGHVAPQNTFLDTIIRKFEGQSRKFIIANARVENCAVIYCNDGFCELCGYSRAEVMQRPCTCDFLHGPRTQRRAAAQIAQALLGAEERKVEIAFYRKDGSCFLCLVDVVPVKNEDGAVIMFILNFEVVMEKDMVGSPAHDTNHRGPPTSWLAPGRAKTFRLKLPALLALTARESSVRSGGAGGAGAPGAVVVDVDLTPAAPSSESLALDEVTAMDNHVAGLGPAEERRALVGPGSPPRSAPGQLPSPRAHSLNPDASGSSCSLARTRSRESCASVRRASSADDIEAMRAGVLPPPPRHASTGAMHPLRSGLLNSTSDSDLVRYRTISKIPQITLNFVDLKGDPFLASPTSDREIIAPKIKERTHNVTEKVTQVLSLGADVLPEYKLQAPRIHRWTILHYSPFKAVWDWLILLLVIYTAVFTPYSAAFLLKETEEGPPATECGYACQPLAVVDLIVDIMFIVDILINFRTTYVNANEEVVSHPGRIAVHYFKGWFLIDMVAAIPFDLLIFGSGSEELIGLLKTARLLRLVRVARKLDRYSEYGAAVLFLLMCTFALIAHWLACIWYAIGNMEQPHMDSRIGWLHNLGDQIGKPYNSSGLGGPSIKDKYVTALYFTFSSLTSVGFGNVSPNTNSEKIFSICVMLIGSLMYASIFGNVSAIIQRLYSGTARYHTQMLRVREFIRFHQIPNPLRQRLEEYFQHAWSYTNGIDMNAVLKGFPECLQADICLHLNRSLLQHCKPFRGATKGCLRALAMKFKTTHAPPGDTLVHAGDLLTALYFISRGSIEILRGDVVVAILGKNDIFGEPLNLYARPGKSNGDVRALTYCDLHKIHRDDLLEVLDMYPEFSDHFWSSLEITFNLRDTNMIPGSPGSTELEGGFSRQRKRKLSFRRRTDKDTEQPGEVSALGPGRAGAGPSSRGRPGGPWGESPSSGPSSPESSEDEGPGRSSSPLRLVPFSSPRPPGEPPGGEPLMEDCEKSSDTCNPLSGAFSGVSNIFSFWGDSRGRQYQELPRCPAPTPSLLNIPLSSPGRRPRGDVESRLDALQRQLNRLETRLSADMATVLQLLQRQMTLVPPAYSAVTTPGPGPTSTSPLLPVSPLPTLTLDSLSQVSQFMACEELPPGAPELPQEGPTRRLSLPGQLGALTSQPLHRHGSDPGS
Give bare numbers.

Some entries whose results are on file:
# compound, testTarget, hERG/GSK-3β Ratio
rows = [
    ("CC(C)Oc1cncc(-c2ccc3[nH]nc(C(=O)NCC4CCS(=O)(=O)C4)c3c2)c1 (stereo not drawn)", "hERG ion channel (Homo sapiens (Human), UniProt Q12809)", 450),
    ("CN(C)Cc1ccncc1-c1ccc2[nH]nc(C(=O)NCC3CCOCC3)c2c1", "hERG ion channel (Homo sapiens (Human), UniProt Q12809)", 182),
]

For each listed entry, give its hERG/GSK-3β Ratio.
1. O=C(NCC1CCOCC1)c1n[nH]c2ccc(-c3cnccc3CN3CCCC3)cc12
2. O=C(NCC1CCOCC1)c1n[nH]c2ccc(-c3cncc(CN4CCOCC4)c3)cc12
3. O=C(NCC1CCOCC1)c1n[nH]c2ccc(-c3cncc(CN4CCCC4)c3)cc12
4. CC(C)Oc1cncc(-c2ccc3[nH]nc(C(=O)NCC4CCOC4)c3c2)c1 (stereo not drawn)

Completion:
114
269
394
365

O=C(NCC1CCOCC1)c1n[nH]c2ccc(-c3cnccc3CN3CCNCC3)cc12 has a reported hERG/GSK-3β Ratio of 782

----------
Provide the reported IC50 of each item.
# testTarget: human GSK-3β (Homo sapiens (Human))
# Sequence (P49841 whole entry): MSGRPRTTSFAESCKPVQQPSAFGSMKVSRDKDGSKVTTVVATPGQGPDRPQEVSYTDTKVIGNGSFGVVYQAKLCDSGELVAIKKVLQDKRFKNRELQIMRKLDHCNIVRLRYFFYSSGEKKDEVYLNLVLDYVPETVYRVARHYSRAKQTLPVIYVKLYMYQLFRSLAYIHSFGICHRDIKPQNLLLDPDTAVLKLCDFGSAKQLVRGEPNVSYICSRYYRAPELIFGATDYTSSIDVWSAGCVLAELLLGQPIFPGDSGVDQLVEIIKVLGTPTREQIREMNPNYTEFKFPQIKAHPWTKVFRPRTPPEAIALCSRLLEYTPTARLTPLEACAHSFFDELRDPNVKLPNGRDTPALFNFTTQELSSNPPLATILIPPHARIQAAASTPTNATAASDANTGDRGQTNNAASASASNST
# experimentalDetails: Test I - Activity on human GSK-3β (LANCE substrate phosphorylation)
# Assay type: biochemical
# conditionInfo: human recombinant GSK-3β, 90 minutes at 22° C., five concentrations 10 μM to 1 nM, duplicate; read-out: GSK-33 IC50
Numbers only, in nM.

A selection of reference data follows.
# compound, measurementUnit, IC50
data = [
    ("O=C(NCC1CCOCC1)c1n[nH]c2ccc(-c3cnccc3CN3CCCC3)cc12", "nM", 140),
    ("O=C(NCC1CCCCO1)c1n[nH]c2ccc(-c3cccc(F)c3F)cc12 (centres unmarked)", "nM", 436),
]

Hey, quick one: what's IC50 for each of these?
1. O=C(NCC1CCOCC1)c1n[nH]c2ccc(-c3cnccc3CN3CCNCC3)cc12
2. CC(C)Oc1cncc(-c2ccc3[nH]nc(C(=O)NCC4CCS(=O)(=O)C4)c3c2)c1 (centres unmarked)
3. O=C(NCC1CCOCC1)c1n[nH]c2ccc(-c3cncc(CN4CCOCC4)c3)cc12

Completion:
[120, 12, 13]

----------
# testTarget: human GSK-3β (Homo sapiens (Human))
# experimentalDetails: Test I - Activity on human GSK-3β (LANCE substrate phosphorylation)
# conditionInfo: human recombinant GSK-3β, 90 minutes at 22° C., five concentrations 10 μM to 1 nM, duplicate; read-out: GSK-33 IC50
measure: log10 of IC50 (log10 of the value in nM)
Would you kindly interpret these values as log10 of IC50 expressed in nM?

# count of solved cases: 3
# compound, experimentalResult
data = [
    ("CC(C)Oc1cncc(-c2ccc3[nH]nc(C(=O)NCC4CCOC4)c3c2)c1 (centres unmarked)", 1.23),
    ("CNCc1cncc(-c2ccc3[nH]nc(C(=O)NCC4CCOCC4)c3c2)c1", 0.78),
    ("O=C(NCC1CCOCC1)c1n[nH]c2ccc(-c3cncc(CN4CCCC4)c3)cc12", 1.23),
]

Below are 4 compounds. Give each one its log10 of IC50.
1. COCc1cncc(-c2ccc3[nH]nc(C(=O)NCC4CCS(=O)(=O)C4)c3c2)c1 (centres unmarked)
2. CN(C)Cc1cncc(-c2ccc3[nH]nc(C(=O)NCC4CCOCC4)c3c2)c1
3. CN(C)Cc1ccncc1-c1ccc2[nH]nc(C(=O)NCC3CCOCC3)c2c1
4. O=C(NCC1CCOCC1)c1n[nH]c2ccc(-c3cnccc3CN3CCOCC3)cc12

Completion:
1.20
1.36
2.34
1.27

Looking up O=C(NC1CCS(=O)(=O)C1)c1n[nH]c2ccc(-c3cncc(CO)c3)cc12 (centres unmarked) , I see its log10 of IC50 listed as 1.23

----------
hERG ion channel (Homo sapiens (Human), UniProt Q12809) measurements of pIC50, listed per entry.
One number for each entry, as −log10 of the molar value.

Known pIC50 results, listed for orientation:
# compound, pIC50
rows = [
    ("O=C(NCC1CCOCC1)c1n[nH]c2ccc(-c3cnccc3CN3CCCC3)cc12", 4.80),
    ("O=C(NCC1CCOCC1)c1n[nH]c2ccc(-c3cncc(CN4CCCC4)c3)cc12", 5.17),
    ("CC(C)Oc1cncc(-c2ccc3[nH]nc(C(=O)NCC4CCS(=O)(=O)C4)c3c2)c1 (centres unmarked)", 5.27),
]

pIC50 measured on O=C(NCC1CCOCC1)c1n[nH]c2ccc(-c3cnccc3CN3CCOCC3)cc12 = 4.34

----------
Notes on IC50 obtained with hERG ion channel (Homo sapiens (Human), UniProt Q12809).
Numbers only, in µM.

# compound, testTarget, measure, experimentalResult
measured = [
    ("O=C(NCC1CCOCC1)c1n[nH]c2ccc(-c3cnccc3CN3CCNCC3)cc12 [Compound 24]", "hERG ion channel (Homo sapiens (Human), UniProt Q12809)", "IC50", 93.8),
]

Would you mind giving IC50 for every compound in the list below?
1. O=C(NCC1CCOCC1)c1n[nH]c2ccc(-c3cncc(CN4CCOCC4)c3)cc12 [Compound 27]
2. CN(C)Cc1cncc(-c2ccc3[nH]nc(C(=O)NCC4CCOCC4)c3c2)c1 [Compound 16]
3. CC(C)Oc1cncc(-c2ccc3[nH]nc(C(=O)NCC4CCOC4)c3c2)c1 (centres unmarked) [Compound 4]
4. CN(C)Cc1ccncc1-c1ccc2[nH]nc(C(=O)NCC3CCOCC3)c2c1 [Compound 21]

Completion:
3.5
44
6.2
40

----------
Field: IC50. Provide a value for each of the molecules that follow.
# testTarget: hERG ion channel (Homo sapiens (Human), UniProt Q12809)

# molecule, IC50
records = [
    ("O=C(NC1CCS(=O)(=O)C1)c1n[nH]c2ccc(-c3cncc(CO)c3)cc12 (stereo not drawn)", "> 100 µM"),
    ("COCc1cncc(-c2ccc3[nH]nc(C(=O)NCC4CCS(=O)(=O)C4)c3c2)c1 (stereo not drawn)", "> 100 µM"),
]

Now look at this entry.
Query CNCc1cncc(-c2ccc3[nH]nc(C(=O)NCC4CCOCC4)c3c2)c1 yields IC50 of > 100 µM
